Value source: patent US10947242B2

Biological target: Human recombinant PDE2A (hPDE2A) (Homo sapiens, UniProt O00408)
Construct: His tag (inferred from metal chelate purification); made in house; host or cells: Sf9 insect cells (baculovirus)
Sequence (O00408 whole entry): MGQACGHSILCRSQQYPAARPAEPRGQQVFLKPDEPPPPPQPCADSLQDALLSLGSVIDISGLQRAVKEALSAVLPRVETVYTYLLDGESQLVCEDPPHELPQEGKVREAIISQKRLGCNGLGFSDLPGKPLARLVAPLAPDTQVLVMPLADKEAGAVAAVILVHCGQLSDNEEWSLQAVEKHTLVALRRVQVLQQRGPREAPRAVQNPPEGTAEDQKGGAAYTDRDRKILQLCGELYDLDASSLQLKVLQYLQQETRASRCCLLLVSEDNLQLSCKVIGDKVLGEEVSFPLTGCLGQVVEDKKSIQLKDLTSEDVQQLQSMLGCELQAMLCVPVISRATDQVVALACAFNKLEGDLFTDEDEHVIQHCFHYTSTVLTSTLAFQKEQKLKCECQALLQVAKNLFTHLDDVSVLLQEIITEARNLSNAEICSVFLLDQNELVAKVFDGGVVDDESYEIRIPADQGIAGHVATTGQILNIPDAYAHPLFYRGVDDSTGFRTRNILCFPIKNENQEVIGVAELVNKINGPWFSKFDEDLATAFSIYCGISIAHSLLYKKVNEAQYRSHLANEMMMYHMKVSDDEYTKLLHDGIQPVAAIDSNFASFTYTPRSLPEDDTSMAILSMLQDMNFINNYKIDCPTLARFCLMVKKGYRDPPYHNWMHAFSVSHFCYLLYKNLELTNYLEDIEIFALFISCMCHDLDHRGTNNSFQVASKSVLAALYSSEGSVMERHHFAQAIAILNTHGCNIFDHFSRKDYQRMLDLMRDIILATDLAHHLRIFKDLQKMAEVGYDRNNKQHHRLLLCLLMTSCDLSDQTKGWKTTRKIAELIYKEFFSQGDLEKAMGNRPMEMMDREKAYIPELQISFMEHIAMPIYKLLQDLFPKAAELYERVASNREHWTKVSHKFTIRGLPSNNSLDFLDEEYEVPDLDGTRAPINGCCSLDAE
Assay: In vitro assay PDE2A (SPA, 3H-cGMP hydrolysis)
Assay type: biochemical
Details: human recombinant PDE2A; read-out: hPDE2A Emax
Quantity: Emax (%)

{"Molecule": "COc1cc(C(=O)N2CC[C@@H](C)[C@H](c3cc(C(F)F)nc4ncnn34)C2)cc(C(C)C)n1 [Compound 122]", "Measured Target": "Human recombinant PDE2A (hPDE2A) (Homo sapiens, UniProt O00408)", "Quantity Unit": "%", "Emax": 100}
{"Molecule": "C[C@@H]1CCN(C(=O)c2ccc3nc(N)sc3c2)C[C@H]1c1cc(C(F)F)nc2ncnn12 [Compound 88]", "Measured Target": "Human recombinant PDE2A (hPDE2A) (Homo sapiens, UniProt O00408)", "Quantity Unit": "%", "Emax": 101}
{"Molecule": "Cc1ccc(F)c(C(=O)N2CC[C@@H](C)[C@@H](c3cc(C(F)F)nc4ncnn34)C2)n1 [Compound 222]", "Measured Target": "Human recombinant PDE2A (hPDE2A) (Homo sapiens, UniProt O00408)", "Quantity Unit": "%", "Emax": 98}
{"Molecule": "C[C@@H]1CCN(C(=O)c2ccc(C3CC3)c(F)c2)C[C@H]1c1cc(C(F)F)nc2ncnn12 [Compound 103]", "Measured Target": "Human recombinant PDE2A (hPDE2A) (Homo sapiens, UniProt O00408)", "Quantity Unit": "%", "Emax": 99}
{"Molecule": "C[C@@H]1CCN(C(=O)c2cc3n(n2)CCO3)C[C@H]1c1cc(C(F)F)nc2ncnn12 [Compound 166]", "Measured Target": "Human recombinant PDE2A (hPDE2A) (Homo sapiens, UniProt O00408)", "Quantity Unit": "%", "Emax": 98}
{"Molecule": "C[C@@H]1CCN(C(=O)c2noc3ccccc23)C[C@H]1c1cc(C(F)F)nc2ncnn12 [Compound 187]", "Measured Target": "Human recombinant PDE2A (hPDE2A) (Homo sapiens, UniProt O00408)", "Quantity Unit": "%", "Emax": 99}
{"Molecule": "C[C@@H]1CCN(C(=O)c2cccc(N)n2)C[C@H]1c1cc(C(F)F)nc2ncnn12 [Compound 162]", "Measured Target": "Human recombinant PDE2A (hPDE2A) (Homo sapiens, UniProt O00408)", "Quantity Unit": "%", "Emax": 97}

* * *

Quantity: melting point (°C)

{"Compound": "C[C@@H]1CCN(C(=O)c2ccc(F)c(C(F)F)c2)C[C@H]1c1cc(C(F)F)nc2ncnn12 [Compound 191]", "melting point / °C": 162.07}

[a] Cc1csc(C(=O)N2CC[C@@H](C)[C@H](c3cc(C(F)F)nc4ncnn34)C2)c1 [Compound 126]
[b] Cc1cc([C@@H]2CN(C(=O)c3cc(Cl)ncc3Cl)CC[C@H]2C)n2ncnc2n1 [Compound 271]
[c] CC1(c2ccnc3ncnn23)CCCN(C(=O)c2ccc3occc3c2)C1 (stereo not drawn) [Compound 202]
Prompt line: Ascending sort, melting point. Answer with the labels in sequence, matching the requested order.
Response line: c, a, b
(c: 78.65 °C, a: 114.32 °C, b: 247.4 °C)

[P] C[C@]1(c2cc(C(F)F)nc3ncnn23)CCCN(C(=O)c2ccc3occc3c2)C1 (single isomer, unassigned) [Compound 209]
[Q] C[C@@H]1CCN(C(=O)c2cnc3c(Cl)cccc3c2)C[C@H]1c1cc(C(F)F)nc2ncnn12 [Compound 329]
Prompt line: // which entry reports the smaller melting point, P or Q ? Response format: the label of the selected entry.
Response line: P
(P: 145.19 °C, Q: 227.79 °C)

[A] Cc1cc(C(=O)N2CC[C@@H](C)[C@H](c3cc(C(F)F)nc4ncnn34)C2)cc(C(F)(F)F)n1 [Compound 132]
[B] C[C@@H]1CCN(C(=O)c2ccnc(C3CC3)c2F)C[C@H]1c1cc(C(F)F)nc2ncnn12 [Compound 120]
Prompt line: // which entry reports the smaller melting point, A or B ? Response format: the label of the selected entry.
Response line: A
